- assay.system: activated protein C (aPC; protein C from human plasma, activated, SIGMA P-2200) (human, UniProt P04070 43-461)
- Sequence (P04070 43-461): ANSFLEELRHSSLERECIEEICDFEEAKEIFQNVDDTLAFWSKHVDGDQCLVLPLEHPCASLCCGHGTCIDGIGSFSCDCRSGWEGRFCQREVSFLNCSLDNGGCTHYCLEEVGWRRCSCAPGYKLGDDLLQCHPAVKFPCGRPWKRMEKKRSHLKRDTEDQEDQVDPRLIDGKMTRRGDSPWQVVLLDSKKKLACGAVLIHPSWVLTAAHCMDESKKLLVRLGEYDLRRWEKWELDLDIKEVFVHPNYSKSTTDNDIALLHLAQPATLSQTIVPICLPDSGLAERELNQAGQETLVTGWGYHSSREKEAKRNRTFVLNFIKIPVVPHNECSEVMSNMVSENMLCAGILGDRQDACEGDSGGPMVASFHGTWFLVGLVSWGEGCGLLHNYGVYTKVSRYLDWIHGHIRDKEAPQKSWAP
- assay.remarks: cell-based or functional assay
result.type: …ON SUPPRESSION RATE (%), EXPERIMENT 1 (APTT coagulation time, human plasma)

binder	experimental.value
anti-aPC antibody aPC#281 (hybridoma well No. 281) (antibody, IgG1, V domains shown) VH: QIQLVQSGPELEKPGETVRISCKASGYTFTDYSLHWVKQAPGKGLKWMGWINTETGEPTYADDLKGRFAFSLETSATTAYLQINNLKNEDTATYFCARGITLDYWGQGTSLTVSS VL: DNVMSQSPSSLAVSVGEKVTMSCKSSQSLLSSSNQKNFLAWYQQKPGQSPKLLISWASTRHSGVPDRFTGSGSGTDFTLTISSVNAEDLAVYYCQQYYRYPLTFGAGTKLELK	33.8%

Source listed as patent US20060121022A1.
